Biological target: KDR (h) (Homo sapiens)
Assay: KDR (VEGFR2) (enzymatic assay), TR-FRET
Format: biochemical
Conditions: average values if tested multiple times, read-out: VEGFR 2 (KDR) pIC50 (converted)
Counter-ions that a name gives are not always drawn.
measure.name: IC50 (nM)
Give bare numbers, in nM.

{"molecule": "COc1cc(/N=c2\\ccc3ncc(-c4cnn(C)c4)nc3n2CC2CCC(=O)N2)c(F)c(OC)c1 (centres unmarked) [Compound 45]", "IC50, nM": 13.5}
{"molecule": "Cn1cc(-c2cnc3ccc(N(Cc4ncc[nH]4)c4cc(F)cc(F)c4)nc3n2)cn1", "IC50, nM": 501}
{"molecule": "CNCCn1/c(=N/c2cc(OC)cc(OC)c2F)ccc2ncc(-c3cnn(C)c3)nc21", "IC50, nM": 74.1}

List the reported IC50 of each molecule below.
1. COCC(O)CN(c1ccc2ncc(-c3cnn(C)c3)nc2n1)c1cc(OC)cc(OC)c1F (single isomer, unassigned) [Compound 58]
2. CNCCn1/c(=N/c2c(F)c(OC)cc(OC)c2F)ccc2ncc(-c3cnn(C)c3)nc21
3. COc1cc(/N=c2\ccc3ncc(-c4cnn(C)c4)nc3n2Cc2ccnn2C)c(F)c(OC)c1
4. COc1cc(OC)c(F)c(N(Cc2ncc[nH]2)c2ccc3ncc(-c4cnn(C)c4)nc3n2)c1 [23-Sulfate salt]
5. COc1cc(OC)c(Cl)c(/N=c2\ccc3ncc(-c4cnn(C)c4)nc3n2CC2CCC(=O)N2)c1Cl (single isomer, unassigned)
6. COc1cc(OC)cc(N(CC(O)C(F)(F)F)c2ccc3ncc(-c4cnn(C)c4)nc3n2)c1 (single isomer, unassigned) [Compound 34]
7. COc1cc(OC)cc(N(Cc2ncc[nH]2)c2ccc3ncc(-c4cnn(C)c4)nc3n2)c1 [24-hydrochloric acid salt]
8. COc1cc(OC)c(F)c(N(Cc2ncc[nH]2)c2ccc3ncc(-c4cnn(Cc5ncc[nH]5)c4)nc3n2)c1

1. 34.7
2. 63.1
3. 4.9
4. 7.94
5. 117
6. 331
7. 7.24
8. 8.13

* * *

Target: Ba/F3-FGFR4-transfected cells (Homo sapiens)
Sequence (P22455 whole entry, change not shown): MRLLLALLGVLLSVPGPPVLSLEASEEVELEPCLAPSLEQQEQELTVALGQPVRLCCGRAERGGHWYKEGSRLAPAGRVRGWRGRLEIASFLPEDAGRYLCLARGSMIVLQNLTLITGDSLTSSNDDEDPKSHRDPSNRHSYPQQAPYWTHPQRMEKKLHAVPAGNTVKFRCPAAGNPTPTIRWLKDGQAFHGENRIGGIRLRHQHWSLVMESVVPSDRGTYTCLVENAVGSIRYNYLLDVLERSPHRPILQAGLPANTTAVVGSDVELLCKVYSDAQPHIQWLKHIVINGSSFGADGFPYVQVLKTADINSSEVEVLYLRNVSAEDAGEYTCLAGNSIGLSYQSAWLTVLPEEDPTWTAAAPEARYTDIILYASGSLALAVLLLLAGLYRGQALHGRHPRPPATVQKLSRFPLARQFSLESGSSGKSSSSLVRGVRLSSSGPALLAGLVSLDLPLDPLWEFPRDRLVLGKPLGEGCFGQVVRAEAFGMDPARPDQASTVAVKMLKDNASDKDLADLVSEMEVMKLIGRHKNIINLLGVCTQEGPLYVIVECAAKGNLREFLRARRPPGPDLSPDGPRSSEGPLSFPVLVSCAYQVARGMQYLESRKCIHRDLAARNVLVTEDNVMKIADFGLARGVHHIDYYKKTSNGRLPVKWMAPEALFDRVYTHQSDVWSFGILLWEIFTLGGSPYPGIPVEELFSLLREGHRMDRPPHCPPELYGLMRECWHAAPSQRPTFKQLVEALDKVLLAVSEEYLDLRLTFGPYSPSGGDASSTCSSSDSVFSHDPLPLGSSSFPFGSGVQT
Assay: Ba/F3-FGFR4 cellular proliferation assay, Alamar Blue
Assay type: cell-based
Could you please report measured BAF3-FGFR4 pIC50 for the items listed next?
One number for each entry.

In the examples that follow, each entry is paired with its recorded BAF3-FGFR4 pIC50.
{"compound": "COc1cc(/N=c2\\ccc3ncc(-c4cnn(C)c4)nc3n2CCNC(C)C)c(F)c(OC)c1 [Compound 37]", "test.system": "Ba/F3-FGFR4-transfected cells (Homo sapiens)", "measure.name": "BAF3-FGFR4 pIC50", "measured.result": 6.78}
{"compound": "COc1cc(/N=c2\\ccc3ncc(-c4cnn(C)c4)nc3n2CC2CC(O)C(=O)N2)cc(OC)c1 (stereo not shown) [Compound 272]", "test.system": "Ba/F3-FGFR4-transfected cells (Homo sapiens)", "measure.name": "BAF3-FGFR4 pIC50", "measured.result": 5.97}
{"compound": "COc1ccc(Cl)c(N(CC2CCC(=O)N2)c2ccc3ncc(-c4cnn(C)c4)nc3n2)c1Cl (stereo not shown) [Compound 93]", "test.system": "Ba/F3-FGFR4-transfected cells (Homo sapiens)", "measure.name": "BAF3-FGFR4 pIC50", "measured.result": 5.02}

// switching to the query compound
Using the record for COc1cc(/N=c2\ccc3ncc(-c4cnn(C)c4)nc3n2CC2COC(=O)N2)c(F)c(OC)c1 (single isomer, unassigned) [Compound 112] , report its BAF3-FGFR4 pIC50. 6.67

* * *

Assignment: determine reported BAF3-FGFR3 (MIN IL3) pIC50 for the given compounds.
Target: Ba/F3-FGFR3-transfected cells (Homo sapiens)
Construct: BAF3-FGFR3 (MIN IL3) pIC50; other: minus IL3
Sequence (P22607 whole entry, change not shown): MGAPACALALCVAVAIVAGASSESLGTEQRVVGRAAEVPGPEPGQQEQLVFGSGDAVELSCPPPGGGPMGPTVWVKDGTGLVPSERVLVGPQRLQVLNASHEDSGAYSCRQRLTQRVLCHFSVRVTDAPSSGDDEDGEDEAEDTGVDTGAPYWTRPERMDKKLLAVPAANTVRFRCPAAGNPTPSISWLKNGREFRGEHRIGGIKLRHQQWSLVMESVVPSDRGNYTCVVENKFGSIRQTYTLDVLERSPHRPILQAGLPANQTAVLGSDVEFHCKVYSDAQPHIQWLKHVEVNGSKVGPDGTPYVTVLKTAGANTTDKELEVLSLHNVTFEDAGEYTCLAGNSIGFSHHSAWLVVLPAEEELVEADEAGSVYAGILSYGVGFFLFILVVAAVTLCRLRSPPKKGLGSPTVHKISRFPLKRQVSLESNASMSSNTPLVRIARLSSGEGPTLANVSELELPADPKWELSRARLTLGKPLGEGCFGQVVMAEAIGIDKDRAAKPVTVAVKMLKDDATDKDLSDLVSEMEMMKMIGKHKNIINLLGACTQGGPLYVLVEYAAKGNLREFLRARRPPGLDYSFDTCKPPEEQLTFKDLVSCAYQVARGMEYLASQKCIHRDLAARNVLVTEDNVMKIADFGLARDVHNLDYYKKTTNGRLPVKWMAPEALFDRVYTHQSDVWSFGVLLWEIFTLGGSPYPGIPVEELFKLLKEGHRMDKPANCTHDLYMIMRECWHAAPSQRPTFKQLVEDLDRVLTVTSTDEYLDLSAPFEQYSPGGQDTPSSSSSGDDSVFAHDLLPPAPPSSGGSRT
Assay: Ba/F3-FGFR3 (minus IL3) cellular proliferation assay, Alamar Blue
Type: cell-based
Experimental: Ba/F3-FGFR3 (Minus IL3 or Plus IL3) (Cellular Proliferation Assay) In a 384 well plate, 100 nl of compound dilution in DMSO was sprayed before adding 50 μl cell culture medium (phenol red free RPMI-1640, 10% FBS, 2 mM L-Glutamine and 50 μg/ml Gentamycin) containing 20000 cells per well of Ba/F3-FGFR3-transfected cells. Cells were put in an incubator at 37° C. and 5% CO2. […]
Give bare numbers.

{"compound": "COc1cc(/N=c2\\ccc3ncc(-c4cnn(C)c4)nc3n2CC(C)(C)O)cc(OC)c1 [Compound 277]", "measured.result": 7.16}

Provide BAF3-FGFR3 (MIN IL3) pIC50 values for the following items, in order.
1. COc1cc(/N=c2\ccc3ncc(-c4cnn(C)c4)nc3n2CCN2CCOCC2)cc(OC)c1 [Compound 147]
2. COc1cc(OC)c(F)c(N(Cc2nnc(NCCO)o2)c2ccc3ncc(-c4cnn(C)c4)nc3n2)c1 [Compound 283]
3. COc1cc(OC)c(F)c(N(CC(O)COC(C)C)c2ccc3ncc(-c4cnn(C)c4)nc3n2)c1F (stereo not shown) [Compound 63]
4. COc1cc(OC)c(F)c(N(CCO)c2ccc3ncc(-c4cnn(C)c4)nc3n2)c1F [Compound 20]

1: 7.23; 2: 5.26; 3: 7.97; 4: 8.15

Could you tell me BAF3-FGFR3 (MIN IL3) pIC50 for each of these compounds? They are listed below.
1. COc1cc(OC)c(F)c(N(Cc2ccnn2C)c2ccc3ncc(-c4cnn(C)c4)nc3n2)c1 [Compound 113]
2. COc1cc(/N=c2\ccc3ncc(-c4cnn(C)c4)nc3n2CCN)c(F)c(OC)c1 [Compound 167]
3. COc1cc(OC)c(F)c(N(Cc2cnccn2)c2ccc3ncc(-c4cnn(C)c4)nc3n2)c1F [Compound 10]

6.72
6.72
7.85

Each of the following entries comes with a recorded value; kindly state BAF3-FGFR3 (MIN IL3) pIC50 for each.
1. COc1cc(/N=c2\ccc3ncc(-c4cnn(C)c4)nc3n2CC2CC(O)C(=O)N2)c(F)c(OC)c1 (stereo not shown) [Compound 270]
2. COc1cc(OC)c(F)c(N(CCCN2CCCC2=O)c2ccc3ncc(-c4cnn(C)c4)nc3n2)c1 [Compound 120]
3. CNCCn1/c(=N/c2c(F)c(OC)cc(OC)c2F)ccc2ncc(-c3cn[nH]c3)nc21 [Compound 121]

[7.00, 7.16, 6.88]

* * *

Target: Ba/F3-KDR-transfected cells (Homo sapiens)
Construct: BAF3-KDR (MIN IL3) pIC50; other: minus IL3
Sequence (P35968 whole entry, change not shown): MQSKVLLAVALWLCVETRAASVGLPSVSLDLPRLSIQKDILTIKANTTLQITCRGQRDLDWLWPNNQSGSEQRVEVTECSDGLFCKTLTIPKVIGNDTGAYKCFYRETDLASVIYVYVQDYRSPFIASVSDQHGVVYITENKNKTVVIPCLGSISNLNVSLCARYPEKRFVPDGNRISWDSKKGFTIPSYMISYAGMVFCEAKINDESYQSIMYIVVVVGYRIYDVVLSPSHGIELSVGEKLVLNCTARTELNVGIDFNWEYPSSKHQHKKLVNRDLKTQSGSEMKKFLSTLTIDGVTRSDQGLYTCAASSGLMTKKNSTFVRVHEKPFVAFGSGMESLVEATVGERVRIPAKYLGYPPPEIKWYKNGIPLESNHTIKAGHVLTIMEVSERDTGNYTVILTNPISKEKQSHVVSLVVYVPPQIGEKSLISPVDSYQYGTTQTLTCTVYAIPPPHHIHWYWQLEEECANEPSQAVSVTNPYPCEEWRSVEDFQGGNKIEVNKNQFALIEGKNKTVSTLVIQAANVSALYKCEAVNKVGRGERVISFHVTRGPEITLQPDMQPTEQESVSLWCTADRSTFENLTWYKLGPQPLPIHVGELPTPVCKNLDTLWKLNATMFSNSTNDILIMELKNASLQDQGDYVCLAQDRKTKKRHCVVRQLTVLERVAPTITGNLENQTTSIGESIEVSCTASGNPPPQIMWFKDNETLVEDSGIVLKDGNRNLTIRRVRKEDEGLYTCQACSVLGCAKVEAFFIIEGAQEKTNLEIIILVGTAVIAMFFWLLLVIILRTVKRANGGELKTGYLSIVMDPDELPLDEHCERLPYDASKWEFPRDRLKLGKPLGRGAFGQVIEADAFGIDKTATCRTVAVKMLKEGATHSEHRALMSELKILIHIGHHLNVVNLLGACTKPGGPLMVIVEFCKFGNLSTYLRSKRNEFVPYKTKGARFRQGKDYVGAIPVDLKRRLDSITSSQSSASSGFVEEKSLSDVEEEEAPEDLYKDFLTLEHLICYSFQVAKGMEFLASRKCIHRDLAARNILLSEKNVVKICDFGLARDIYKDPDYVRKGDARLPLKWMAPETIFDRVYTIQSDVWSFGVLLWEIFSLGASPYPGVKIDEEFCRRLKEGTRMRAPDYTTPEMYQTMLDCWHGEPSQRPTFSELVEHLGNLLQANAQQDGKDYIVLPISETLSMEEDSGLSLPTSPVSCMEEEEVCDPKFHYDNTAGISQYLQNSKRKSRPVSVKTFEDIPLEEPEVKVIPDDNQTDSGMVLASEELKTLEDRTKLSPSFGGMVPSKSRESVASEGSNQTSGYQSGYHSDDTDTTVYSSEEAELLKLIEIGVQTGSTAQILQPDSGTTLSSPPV
Test: Ba/F3-KDR (minus IL3) cellular proliferation assay, Alamar Blue
Format: cell-based
Experimental: Ba/F3-KDR (Minus IL3 or Plus IL3) (Cellular Proliferation Assay) In a 384 well plate, 100 n1 of compound dilution in DMSO was sprayed before adding 50 μl cell culture medium (phenol red free RPMI-1640, 10% FBS, 2 mM L-Glutamine and 50 μg/ml Gentamycin) containing 20000 cells per well of Ba/F3-KDR-transfected cells. Cells were put in an incubator at 37° C. and 5% CO2. […]
Consider the cut-off 6. If the recorded BAF3-KDR (MIN IL3) pIC50 is strictly smaller, the label is y; if not, the label is n.

hey, is BAF3-KDR (MIN IL3) pIC50 for Cn1cc(-c2cnc3ccc(N(Cc4ncc[nH]4)c4cc(F)cc(F)c4)nc3n2)cn1 [Compound 27] lower than 6 or not? y

Does the reported BAF3-KDR (MIN IL3) pIC50 of COc1cc(OC)cc(N(Cc2noc(C)n2)c2ccc3ncc(-c4cnn(C)c4)nc3n2)c1 [Compound 186] stay below 6? y

Lab log: compare recorded BAF3-KDR (MIN IL3) pIC50 with 6; is it strictly lower for COc1cc(/N=c2\ccc3ncc(-c4cnn(C)c4)nc3n2CCN2CCOCC2)c(F)c(OC)c1 [Compound 148] ? n

Threshold test, BAF3-KDR (MIN IL3) pIC50 < 6: COc1cc(/N=c2\ccc3ncc(-c4cnn(C)c4)nc3n2CC2CCCOC2)cc(OC)c1 (stereo not shown) [Compound 165] n

Is BAF3-KDR (MIN IL3) pIC50 strictly under 6 for the entry COc1cc(OC)c(F)c(/N=c2\ccc3ncc(-c4cnn(C)c4)nc3n2CCNC(C)C)c1F [Compound 6] ? y

Just wondering, is BAF3-KDR (MIN IL3) pIC50 of CNCCN(c1ccc2ncc(-c3cn[nH]c3)nc2n1)c1c(F)c(OC)cc(OC)c1F [Compound 106] below 6? y

Consider the compound COc1cc(OC)cc(N(Cc2ncc[nH]2)c2ccc3ncc(-c4ccccc4)nc3n2)c1 [Compound 152] . Is its BAF3-KDR (MIN IL3) pIC50 strictly less than 6? y

Hello, is BAF3-KDR (MIN IL3) pIC50 of the following compound strictly smaller than 6? COCC(O)CN(c1ccc2ncc(-c3cnn(C)c3)nc2n1)c1c(F)c(OC)cc(OC)c1F (stereo not shown) [Compound 50] n

Lab note: BAF3-KDR (MIN IL3) pIC50 threshold 6. Does this compound come in strictly under it? COc1cc(OC)c(F)c(N(Cc2nc(OC)cc(OC)n2)c2ccc3ncc(-c4cnn(C)c4)nc3n2)c1 [Compound 220] y

hey, is BAF3-KDR (MIN IL3) pIC50 for COc1cc(OC)c(F)c(/N=c2\ccc3ncc(-c4cnn(C)c4)nc3n2CC2CCOC2)c1F (stereo not shown) [Compound 154] lower than 6 or not? n
